- ASSAY_REMARKS: recombinant barcode read abundance after kanamycin selection (control-corrected) (log10(CPM+1)); higher = more efficient recombination; sequences stand for … in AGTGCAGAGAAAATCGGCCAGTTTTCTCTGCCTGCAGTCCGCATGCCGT…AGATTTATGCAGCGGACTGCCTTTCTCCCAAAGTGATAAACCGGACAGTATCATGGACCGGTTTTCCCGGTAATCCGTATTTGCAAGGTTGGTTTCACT; site = the 11-nt target;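 further: IS621 recombinase and bridge RNA in Escherichia coli cells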
Use met when the recorded recombinant barcode read abundance (log10) is no lower than 0.1; use not met when it is lower.

| MACROMOLECULE_SEQUENCE | ASSIGNED_CLASS |
| --- | --- |
| ATCTTACCTTGGGTTCTAACCTGTTGCCG (site GTCTTCCCTCG) | met |

Q: Is the recorded value of recombinant barcode read abundance (log10) equal to or greater than 0.1 for this sequence? CCAAGGCCTTGGGTTCTAACCTGTTGCCG (site CCAAGGCCTCG)
Ans: not met

Q: Now consider GAATCTACTTGGGTTCTAACCTGTTGCCT (site GGATCTACTAG) .
Ans: met

Q: Now consider ATACGTCCTTGGGTTCTAACCTGTTGCAT (site AGACGTCCTAC) .
Ans: met

Q: Now consider CTCAGGTCTTGGGTTCTAACCTGTTGCCA (site CTCAGGTCTTG) .
Ans: met

Q: Now consider TTGGCGACTTGGGTTCTAACCTGTTGCCA (site TTGCCGACTTG) .
Ans: not met

Q: Now consider CTCCATCCTTGGGTTCTAACCTGTTGCCT (site CTCCATTCTAG) .
Ans: not met

Q: Now consider TAGGCGACTTGGGTTCTAACCTGTTGCTA (site TAGGGCACTTA) .
Ans: met

Q: Now consider TCAAGGCCTTGGGTTCTAACCTGTTGCCT (site TCAAGGCCTAG) .
Ans: met

Q: Now consider GCAACCTCTTGGGTTCTAACCTGTTGCTA (site CGCTGACCTAG) .
Ans: not met

Q: Now consider GCGTTACCTTGGGTTCTAACCTGTTGCCT (site GCGTTACCTAG) .
Ans: met
